method: Tissue distribution of 18F imaging agents in rats
Format: in vivo, Male Sprague Dawley rats
measurement parameters: rat, iv tail vein ~15 μCi, 15 min post injection, ± SEM
reported endpoint: Heart, imaging agent distribution at 15 min (% ID/g)
Answers are plain numbers, in % ID/g.

>  <compound>
CC(C)(C)n1ncc(OCc2cccc(OCCF)c2)c(Cl)c1=O [Example 67F]

>  <unit tag>
% ID/g

>  <measured value>
1.92

$$$$
>  <compound>
CC(C)(C)n1ncc(OCc2ccc(Oc3cccnc3F)cc2)c(Cl)c1=O [Example 67O]

>  <unit tag>
% ID/g

>  <measured value>
2.68

$$$$
>  <compound>
CC(OCCF)c1ccc(COc2cnn(C(C)(C)C)c(=O)c2Cl)cc1 (stereo not drawn) [Example 67G]

>  <unit tag>
% ID/g

>  <measured value>
2.19

$$$$
>  <compound>
CC(C)(C)n1ncc(OCc2ccc(-c3cnc(F)nc3)cc2)c(Cl)c1=O [Example 67L]

>  <unit tag>
% ID/g

>  <measured value>
1.19

$$$$
>  <compound>
CC(C)(C)n1ncc(OCc2ccc(C(=O)OCCF)cc2)c(Cl)c1=O [Example 67J]

>  <unit tag>
% ID/g

>  <measured value>
1.19

$$$$
>  <compound>
CC(C)(C)n1ncc(OCc2ccc([Si](F)(C(C)(C)C)C(C)(C)C)cc2)c(Cl)c1=O [Example 67N]

>  <unit tag>
% ID/g

>  <measured value>
0.65

$$$$

// batch mode: one Heart, imaging agent distribution at 15 min value per listed entry
1. CC(C)(C)n1ncc(OCc2cccc(COCCF)c2)c(Cl)c1=O [Example 67A]
2. CC(C)n1ncc(OCc2ccc(COCCF)cc2)c(Cl)c1=O [Example 67H]
3. Cc1c(OCc2ccc(COCCF)cc2)cnn(C(C)(C)C)c1=O [Example 67I]

Reply text:
0.65
1.14
2.34

====

Test system: hepatocytes
method: Metabolic profiling of imaging agents in cryopreserved hepatocytes (HPLC with radiodetection)
Assay type: in vitro ADME
measurement parameters: hepatocytes 1×10^6 cells/mL, 37° C./5% CO2; species and incubation time not given
reported endpoint: % Parent Remaining (%)
Numbers only, in %.

Below, 3 molecules whose answers are already recorded.
>  <molecule>
CC(C)(C)n1ncc(OCc2ccc([Si](F)(C(C)(C)C)C(C)(C)C)cc2)c(Cl)c1=O [Example 62B]

>  <system tested>
hepatocytes

>  <reported endpoint>
% Parent Remaining

>  <measured value>
98

$$$$
>  <molecule>
CC(C)(C)n1ncc(CCc2ccc(COCCF)cc2)c(Cl)c1=O [Example 61]

>  <system tested>
hepatocytes

>  <reported endpoint>
% Parent Remaining

>  <measured value>
6

$$$$
>  <molecule>
CC(C)(C)n1ncc(OCc2ccc(C#CCCF)cc2)c(Cl)c1=O [Example 43]

>  <system tested>
hepatocytes

>  <reported endpoint>
% Parent Remaining

>  <measured value>
63

$$$$

// batch mode: one % Parent Remaining value per listed entry
1. CC(OCCF)c1ccc(COc2cnn(C(C)(C)C)c(=O)c2Cl)cc1 (centres unmarked) [Example 16]
2. CC(C)n1ncc(OCc2ccc(COCCF)cc2)c(Cl)c1=O [Example 1]

Reply text:
[20, 20]

====

method: Tissue distribution of 18F imaging agents in rats
Format: in vivo, Male Sprague Dawley rats
measurement parameters: rat, iv tail vein ~15 μCi, 15 min post injection, ± SEM
reported endpoint: Lung, imaging agent distribution at 15 min

Below, 10 molecules whose answers are already recorded.
>  <molecule>
CC(C)(C)n1ncc(OCc2cccc(OCCF)c2)c(Cl)c1=O [Example 67F]

>  <measured value>
0.41 ± 0.03 % ID/g

$$$$
>  <molecule>
CC(C)(C)n1ncc(OCc2ccc(C#CCCF)cc2)c(Cl)c1=O [Example 67K]

>  <measured value>
0.37 ± 0.15 % ID/g

$$$$
>  <molecule>
CC(C)(C)n1ncc(OCc2ccc(OCCOCCF)cc2)c(Cl)c1=O [Example 67B]

>  <measured value>
0.49 ± 0.04 % ID/g

$$$$
>  <molecule>
CC(C)(C)n1ncc(OCc2ccc(-c3cnc(F)nc3)cc2)c(Cl)c1=O [Example 67L]

>  <measured value>
0.29 ± 0.03 % ID/g

$$$$
>  <molecule>
CC(C)n1ncc(OCc2ccc(COCCF)cc2)c(Cl)c1=O [Example 67H]

>  <measured value>
0.41 ± 0.01 % ID/g

$$$$
>  <molecule>
Cc1c(OCc2ccc(COCCF)cc2)cnn(C(C)(C)C)c1=O [Example 67I]

>  <measured value>
0.19 ± 0.03 % ID/g

$$$$
>  <molecule>
CC(C)(C)n1ncc(OCc2ccc(OCCF)cc2)c(Cl)c1=O [Example 67D]

>  <measured value>
1.00 % ID/g

$$$$
>  <molecule>
[2H]C([2H])(OCCF)c1ccc(COc2cnn(C(C)(C)C)c(=O)c2Cl)cc1 [Example 67E]

>  <measured value>
0.39 ± 0.05 % ID/g

$$$$
>  <molecule>
CC(C)(C)n1ncc(OCc2ccc(OCCCF)c(Cl)c2)c(Cl)c1=O [Example 67C]

>  <measured value>
0.50 ± 0.08 % ID/g

$$$$
>  <molecule>
CC(C)(C)n1ncc(OCc2ccc([Si](F)(C(C)(C)C)C(C)(C)C)cc2)c(Cl)c1=O [Example 67N]

>  <measured value>
1.31 ± 0.24 % ID/g

$$$$

// batch mode: one Lung, imaging agent distribution at 15 min value per listed entry
1. CC(C)(C)n1ncc(OCc2ccc(Oc3cccnc3F)cc2)c(Cl)c1=O [Example 67O]
2. CC(C)(C)n1ncc(CCc2ccc(COCCF)cc2)c(Cl)c1=O [Example 67M]
3. CC(C)(C)n1ncc(OCc2cccc(COCCF)c2)c(Cl)c1=O [Example 67A]
4. CC(C)(C)n1ncc(OCc2ccc(C(=O)OCCF)cc2)c(Cl)c1=O [Example 67J]

Reply text:
1. 0.37 ± 0.15 % ID/g
2. 0.97 ± 0.13 % ID/g
3. 0.07 ± 0.01 % ID/g
4. 0.39 ± 0.02 % ID/g

Entry under test: CC(OCCF)c1ccc(COc2cnn(C(C)(C)C)c(=O)c2Cl)cc1 (stereo not drawn) [Example 67G] . Its Lung, imaging agent distribution at 15 min was 0.46 ± 0.12 % ID/g
